Provenance of the data: patent US8524745B2

# pIC50 annotations
- Test Target: CCR2 (Homo sapiens, UniProt P41597)
- Sequence (P41597 whole entry, species assumed): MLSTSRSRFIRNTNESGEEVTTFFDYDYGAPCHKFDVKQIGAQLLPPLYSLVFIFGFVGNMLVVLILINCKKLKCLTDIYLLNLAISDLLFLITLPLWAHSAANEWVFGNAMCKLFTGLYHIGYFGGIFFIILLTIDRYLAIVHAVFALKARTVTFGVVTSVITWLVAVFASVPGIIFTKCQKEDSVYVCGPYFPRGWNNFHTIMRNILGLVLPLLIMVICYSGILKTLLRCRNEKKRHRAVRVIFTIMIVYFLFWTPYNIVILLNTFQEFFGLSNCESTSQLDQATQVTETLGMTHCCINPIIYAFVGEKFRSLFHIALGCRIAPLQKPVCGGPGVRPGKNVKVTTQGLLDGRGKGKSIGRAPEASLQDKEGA
- Test Summary: CCR2 calcium activity assay on FLIPR Tetra in HEK-Gqi5 cells stably expressing CCR2
// returns pIC50 (minus log10 of molar concentration), number only

The following molecules have reported results that may help.
{"Compound String": "COc1ccc(S(=O)(=O)Nc2ccc(Cl)cc2NS(=O)(=O)c2ccc3c(c2)c(=O)sn3C)cc1OC", "pIC50": 5.99}
{"Compound String": "Cn1sc(=O)c2cc(S(=O)(=O)Nc3cc(C(F)(F)F)c(Cl)cc3NS(=O)(=O)c3cccs3)ccc21", "pIC50": 6.28}
{"Compound String": "CC(=O)Nc1ccc(S(=O)(=O)Nc2ccc(Cl)cc2NS(=O)(=O)c2ccc3c(c2)c(=O)sn3C)cc1", "pIC50": 5.65}

State, in one line, measured pIC50 of COc1cccc(NS(=O)(=O)c2ccc3c(c2)c(=O)sn3C)c1OC 5.42

State, in one line, measured pIC50 of Cc1ccc(NS(=O)(=O)c2ccc3c(c2)c(=O)sn3C)c(NS(=O)(=O)c2cccs2)c1 6.25

---

- Test Target: CCR2 (Homo sapiens, UniProt P41597)
- Construct: expressed in transfected cells
- Test Summary: CCR2 calcium activity assay on FLIPR Tetra in HEK-Gqi5 cells stably expressing CCR2
- Assay type: cell-based
# IC50 annotations
All answers are understood in nM, so give the number only.

{"Compound String": "Cn1cc(S(=O)(=O)Nc2ccccc2NS(=O)(=O)c2ccc3c(c2)c(=O)sn3C)cn1", "IC50 [nM]": 2480}
{"Compound String": "Cn1sc(=O)c2cc(S(=O)(=O)N3CCN(S(=O)(=O)c4cccs4)c4ccccc43)ccc21", "IC50 [nM]": 2080}
{"Compound String": "Cn1sc(=O)c2cc(S(=O)(=O)Nc3cc(Cl)c(Cl)cc3NS(=O)(=O)c3ccc(Cl)c(C(F)(F)F)c3)ccc21", "IC50 [nM]": 529}

State, in one line, measured IC50 of Cn1sc(=O)c2cc(S(=O)(=O)Nc3ccccc3NS(=O)(=O)c3ccccc3)ccc21 887

---

- Test Target: CCR2 (Homo sapiens)
- Construct: expressed in transfected cells
- Test Summary: CCR2 calcium activity assay on FLIPR Tetra in HEK-Gqi5 cells stably expressing CCR2
- Assay type: cell-based
Measure: CCR2 % ANTAG (%)
All answers are understood in %, so give the number only.

State, in one line, measured CCR2 % ANTAG of Cn1sc(=O)c2cc(S(=O)(=O)Nc3ccccc3NS(=O)(=O)c3cc(Cl)ccc3Cl)ccc21 99

State, in one line, measured CCR2 % ANTAG of CN(C)c1cccc(S(=O)(=O)Nc2ccc(Cl)cc2NS(=O)(=O)c2ccc3c(c2)c(=O)sn3C)c1 69

State, in one line, measured CCR2 % ANTAG of Cn1sc(=O)c2cc(S(=O)(=O)Nc3cc(Cl)ccc3NCc3cccs3)ccc21 83

State, in one line, measured CCR2 % ANTAG of Cn1sc(=O)c2cc(S(=O)(=O)NC3CCCN(S(=O)(=O)c4cccs4)C3)ccc21 (stereo not drawn) 39

State, in one line, measured CCR2 % ANTAG of Cn1sc(=O)c2cc(C(=O)Nc3cc(Cl)ccc3NS(=O)(=O)c3cccs3)ccc21 99

State, in one line, measured CCR2 % ANTAG of Cn1sc(=O)c2cc(S(=O)(=O)Nc3c(F)cccc3NS(=O)(=O)c3cccs3)ccc21 105

State, in one line, measured CCR2 % ANTAG of Cn1sc(=O)c2cc(S(=O)(=O)Nc3cc(Br)ccc3NS(=O)(=O)c3cccs3)ccc21 100

State, in one line, measured CCR2 % ANTAG of CC(C)n1sc(=O)c2cc(S(=O)(=O)Nc3cccc4c3OC(F)(F)C(F)(F)O4)ccc21 68

State, in one line, measured CCR2 % ANTAG of Cn1sc(=O)c2cc(S(=O)(=O)Nc3ccc(Cl)c(Cl)c3)ccc21 94.08

State, in one line, measured CCR2 % ANTAG of Cc1cc(NS(=O)(=O)c2ccc3c(c2)c(=O)sn3C)c(NS(=O)(=O)c2cccs2)cc1C 91

State, in one line, measured CCR2 % ANTAG of Cn1sc(=O)c2cc(S(=O)(=O)Nc3cc(Cl)ccc3NS(=O)(=O)c3cc(Cl)cc(Cl)c3)ccc21 94

State, in one line, measured CCR2 % ANTAG of Cn1sc(=O)c2cc(S(=O)(=O)Nc3ccccc3NS(=O)(=O)c3ccc(Cl)cc3)ccc21 99

State, in one line, measured CCR2 % ANTAG of CC(C)n1sc(=O)c2cc(S(=O)(=O)Nc3ccccc3NS(=O)(=O)c3cccs3)ccc21 90
